# assay comment: in vitro
# assay conditions: PAMPA
# Description: Permeability of the compound by BBB-PAMPA
property: Papp
Please append the unit to your numeric answer.

Output measured Papp for this item: CCOC(=O)c1ccc2nc(-c3ccc(Cl)cc3)c3c(c2c1)N(Cc1ccccc1)CCC3 8.1 ×10⁻⁶ cm/s

Report Papp for CCNCc1ccc2nc(-c3ccc(Cl)cc3)c3c(c2c1)NCCC3 5.6 ×10⁻⁶ cm/s

Annotate the compound CN1C(C(=O)Nc2ccccn2)=C(O)c2ccccc2S1(=O)=O with its measured Papp. 1.71 ×10⁻⁶ cm/s

// fetch Papp given entry CCOC(=O)c1ccc2nc(-c3ccc(Cl)cc3)c3c(c2c1)N(Cc1ccc(OC)cc1)CCC3 26 ×10⁻⁶ cm/s
